# credit: paper PMC12040169

Test: in vitro
Conditions: human, hela cells, % viability
OBSERVABLE: viability at 28.5 h, 10 µM (%)
Just the number in %, nothing appended.

Returns the measured viability at 28.5 h, 10 µM for the input compound. Input: N#Cc1c(O)nc(SCC(=O)Nc2ccc(Oc3ccccc3)cc2)nc1-c1ccccc1 [CBK266607]
118

Returns the measured viability at 28.5 h, 10 µM for the input compound. Input: CC(=O)c1cc2cnccc2[nH]c1=O [CBK089771]
86.5

Returns the measured viability at 28.5 h, 10 µM for the input compound. Input: N#Cc1cccc(NC(=O)CN2CCN(C(=O)C3COc4ccccc4O3)CC2)c1 (stereo not shown) [CBK074779]
93.5

Returns the measured viability at 28.5 h, 10 µM for the input compound. Input: O=C(c1cnn(-c2ccc(Cl)cc2Cl)c1)N1CCOCC1c1ncon1 (stereo not shown) [CBK304231]
84.5

Returns the measured viability at 28.5 h, 10 µM for the input compound. Input: CN(C)[C@H]1CCCC[C@@H]1n1c(-c2ccc(Cl)c(Cl)c2)n[nH]c1=O [CBK010566]
114

Returns the measured viability at 28.5 h, 10 µM for the input compound. Input: CC(C)NC(=O)Nc1ccc(C(=O)N(CCC#N)C(C)C2CC2)cc1 (stereo not shown) [CBK305312]
110

Returns the measured viability at 28.5 h, 10 µM for the input compound. Input: COc1nnc(-c2ccc(C)cc2)c2ccccc12 [CBK263466]
92

Returns the measured viability at 28.5 h, 10 µM for the input compound. Input: CC(C)Cn1cncc1CNC(=O)Nc1ccc2c(cnn2C)c1 [CBK307405]
93.8

Returns the measured viability at 28.5 h, 10 µM for the input compound. Input: O=C(NC(Cc1ccccc1)C(=O)O)c1ccc(C#CC2(O)CCCCC2)cc1 (stereo not shown) [CBK267702]
93

Returns the measured viability at 28.5 h, 10 µM for the input compound. Input: CN(C1CCCCC1)C1CCN(CCc2ccccc2)CC1 [CBK261918]
97.5

Returns the measured viability at 28.5 h, 10 µM for the input compound. Input: CN1CCN(CCC(=O)N2CCN(C(=O)c3ccco3)CC2)CC1 [CBK144481]
89.3

Returns the measured viability at 28.5 h, 10 µM for the input compound. Input: Cc1cccnc1C(NC(=O)C1CCN(S(=O)(=O)c2cccs2)CC1)c1cccs1 (stereo not shown) [CBK060147]
111

Returns the measured viability at 28.5 h, 10 µM for the input compound. Input: Cc1ccccc1OCC(=O)Nc1ccc(C(=O)O)c(Cl)c1 [CBK287027]
83.6

Returns the measured viability at 28.5 h, 10 µM for the input compound. Input: CC(=O)Nc1ccc(S(=O)(=O)N2CCC3(CC2)NC(=O)c2cc(-c4ccoc4)ccc2O3)cc1 [CBK115856]
113

Returns the measured viability at 28.5 h, 10 µM for the input compound. Input: COc1ccccc1NC(=O)N1C[C@@H]2C[C@H](C1)c1c(-c3cccs3)ccc(=O)n1C2 [CBK289191]
107

Returns the measured viability at 28.5 h, 10 µM for the input compound. Input: CC(C)c1cc(C(=O)NC(C)(C)CN2CCCCC2C)n(C)n1 (stereo not shown) [CBK282644]
96.4

Returns the measured viability at 28.5 h, 10 µM for the input compound. Input: COc1ccc2[nH]c3c(c2c1)CCN[C@]31CCN(CCOc2ccc(F)cc2)C1 [CBK089876T]
73.6

Returns the measured viability at 28.5 h, 10 µM for the input compound. Input: NS(=O)(=O)c1ccc(NC(=S)NC(=O)/C=C/c2ccc([N+](=O)[O-])cc2)cc1 [CBK262176]
99.2

Returns the measured viability at 28.5 h, 10 µM for the input compound. Input: CC(C)(C)NC(=O)CN1C(=O)N2CCCN=C2c2ccc(Cl)cc21 [CBK284391]
102
